Tested on: SN12C
Test: NCI tumour cell line growth inhibition, 48 h
The source made the active and inactive calls. Rule as the data show it: active = GI50 up to about 1.1 µM and inactive = higher.
property.label: GI50

C=C(CN(C)C)C(=O)c1ccccc1 | 17.4 µM (inactive)
O=C1CCc2cc3c(cc21)C(C(=O)O)CC3 (stereo unspecified) | > 100 µM (inactive)
NC(CCP(=O)(O)CCC1C=CC=CC1)C(=O)O (stereo unspecified) | > 100 µM (inactive)
NC(=O)NN=C1Cc2ccccc2C1 | > 100 µM (inactive)
O=c1c2cc(S(=O)(=O)O)ccc2nc(COc2ccc(Oc3ccc(Cl)cc3Cl)cc2)n1-c1ccc(Oc2ccc(Cl)cc2)cc1Cl | 17.7 µM (inactive)

For this compound ( Cn1c(N)c(/N=N/c2ccc(S(N)(=O)=O)cc2)c(=O)n(C)c1=O ), measured GI50 is > 100 µM (inactive)

For this compound ( Nc1ncnc2c1ncn2C1OC(CO)C2OC21 (stereo unspecified) ), measured GI50 is > 100 µM (inactive)

---

Test system: A498
Test: NCI tumour cell line growth inhibition, 48 h
Activity calls are given as the source filed them. Cut-off read from the data, not from the text of the source: active = GI50 up to about 1.1 µM and inactive = higher.
property.label: GI50

These solved cases illustrate the format of a correct answer.
CC(=O)C(=[N+]=[N-])C(=O)N(C)CCC#N | > 10 µM (inactive)
COC1CC(OC2OC(CO)C(O)C(O)C2O)/C(=C\C#N)C(O)C1OC (centres undefined) | > 100 µM (inactive)
CCOC(=O)c1ccc(NCC#CCN2CCOCC2)cc1 | > 100 µM (inactive)
CC(=O)NC1CCC(NC(=O)OC(C)(C)C)C(NC(=O)OC(C)(C)C)C1 (centres undefined) | > 100 µM (inactive)

For this compound ( O=C(C(=O)c1ccc(Cc2ccc(C(=O)C(=O)c3ccccc3)cc2)cc1)c1ccccc1 ), measured GI50 is > 100 µM (inactive)

For this compound ( COc1cc(/C=C2/Oc3c(OC)cccc3C2=O)ccc1O ), measured GI50 is 94 µM (inactive)

For this compound ( O=C1C=CC(=O)c2c1c1c(c3c2C2c4ccccc4C3c3ccccc32)C2c3ccccc3C1c1ccccc12 ), measured GI50 is 2.9 µM (inactive)

For this compound ( Nc1nc(SCC(=O)c2ccccc2)nc2nc3c(c(-c4ccccc4)c12)CCCC3 ), measured GI50 is 19.8 µM (inactive)

For this compound ( CSC12c3cc(C)n(-c4ccc([N+](=O)[O-])cc4)c3CC(C)(C)CN1C(=O)C2Oc1ccccc1 (centres undefined) ), measured GI50 is 10.6 µM (inactive)

---

Tested on: MDA-MB-231
Assay: NCI tumour cell line growth inhibition, 48 h
Active and inactive are the calls of the source. Cut-off read from the data, not from the text of the source: active = GI50 up to about 1.1 µM and inactive = higher.
property.label: GI50

CCCCCCc1cc2cc(-c3cn4ccccc4n3)c(=O)oc2cc1O | 3.27 µM (inactive)
Cc1ccc(-c2nc(Cc3n[nH]c(-c4ccc(C)cc4)n3)n[nH]2)cc1 | > 100 µM (inactive)
CSc1c(C(=O)Nc2ccc(C)cc2)c(N)n(N)c(=O)c1C#N | > 100 µM (inactive)
N=c1c2c(-c3ccccc3)c[nH]c2ncn1N | > 100 µM (inactive)
N/N=C1\C(OC(=O)Nc2cccc(Cl)c2)=Nc2ccccc21 | 12.1 µM (inactive)

For this compound ( CCOC(=O)c1nc2ccccc2nc1Oc1cc(OC)cc(OC)c1 ), measured GI50 is > 100 µM (inactive)

For this compound ( NS(=O)(=O)c1ccc(NC(=O)c2cc([N+](=O)[O-])cc([N+](=O)[O-])c2)cc1 ), measured GI50 is 39.4 µM (inactive)
